// provenance: paper PMC7601585

biological target: AlboD7L1 (Aedes albopictus, UniProt Q5MIW7); construct: made in house; host or cells: Escherichia coli BL21 (DE3) pLysS; test: biochemical; assay type: binding; conditions: ITC, 30 °C, TBS pH 7.4, single-site model, N fixed = 1
Sequence (Q5MIW7 22-332 limits assumed): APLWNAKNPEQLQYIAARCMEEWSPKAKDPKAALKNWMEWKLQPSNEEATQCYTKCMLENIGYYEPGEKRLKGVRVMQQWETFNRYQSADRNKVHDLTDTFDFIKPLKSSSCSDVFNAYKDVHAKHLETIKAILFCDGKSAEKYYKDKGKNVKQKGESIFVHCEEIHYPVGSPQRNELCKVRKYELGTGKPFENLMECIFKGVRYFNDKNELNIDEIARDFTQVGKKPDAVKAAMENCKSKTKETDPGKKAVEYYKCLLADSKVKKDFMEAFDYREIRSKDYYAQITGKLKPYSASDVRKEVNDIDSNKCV
// boundary case: ΔH (kcal/mol) ± SE equal to -7 kcal/mol maps to not met; strictly smaller maps to met

Sample answers from the record:
NC[C@H](O)c1ccc(O)c(O)c1 [Norepinephrine, norepinephrine] | met
NCCc1c[nH]c2ccccc12 [Tryptamine, tryptamine] | not met
CCCCC/C=C\C\C=C/C=C/C=C/[C@@H](SC[C@H](N)C(=O)O)[C@@H](O)CCCC(=O)O [LTE4, leukotriene E4] | not met
CCCCC/C=C\C[C@@H](O)/C=C/C=C/C=C\[C@@H](O)CCCC(=O)O [LTB4, leukotriene B4] | not met
CCCCC/C=C\C\C=C/C=C/C=C/[C@@H](SC[C@H](N)C(=O)NCC(=O)O)[C@@H](O)CCCC(=O)O [LTD4] | not met

Here's an entry: CCCCC/C=C\C\C=C/C=C/C=C/[C@@H](SC[C@H](NC(=O)CC[C@H](N)C(=O)O)C(=O)NCC(=O)O)[C@@H](O)CCCC(=O)O [LTC4] . Is its ΔH (kcal/mol) ± SE below -7 kcal/mol?
met

Hi there! Is ΔH (kcal/mol) ± SE for NCCc1c[nH]cn1 [Histamine, histamine] below -7 kcal/mol, do you know?
met

----------
biological target: AlboD7L1 (Aedes albopictus)
Readout: pKd
Units for pKd: none; it is -log10 of a concentration expressed in mol/L.

// below: answered compounds
CCCCC/C=C\C[C@@H](O)/C=C/C=C/C=C\[C@@H](O)CCCC(=O)O | 6.47
CCCCC/C=C\C\C=C/C=C/C=C/[C@@H](SC[C@H](NC(=O)CC[C@H](N)C(=O)O)C(=O)NCC(=O)O)[C@@H](O)CCCC(=O)O | 7.17
CCCCC/C=C\C\C=C/C=C/C=C/[C@@H](SC[C@H](N)C(=O)NCC(=O)O)[C@@H](O)CCCC(=O)O | 6.48

AlboD7L1 (Aedes albopictus) pKd of `CCCCC/C=C\C\C=C/C=C/C=C/[C@@H](SC[C@H](N)C(=O)O)[C@@H](O)CCCC(=O)O` is 6.25

----------
# Lookup of reported ΔH (kcal/mol) ± SE keyed by entry
Molecular target: AlboD7L1 (Aedes albopictus, UniProt Q5MIW7)
Construct: made in house; host or cells: Escherichia coli BL21 (DE3) pLysS
Experiment: biochemical
Assay type: binding
Settings: ITC, 30 °C, TBS pH 7.4, single-site model, N fixed = 1
Protocol: To identify the potential biological function of AlboD7L1, isothermal titration calorimetry (ITC) was used to determine its binding affinities to putative ligands that are known to affect inflammation and hemostasis (biogenic amines, leukotrienes, and thromboxane A2). Measurements were performed on a MicroCal VP-ITC (Malvern Panalytical, Westborough, MA, USA) at 30 °C and stir speed at 286 rpm. […]
API: value field is a number in kcal/mol; no unit string.

CNC[C@H](O)c1ccc(O)c(O)c1 [Epinephrine, epinephrine] | -6.83
CCCCCC(O)C=CC1C2CC(CO2)C1CC=CCCCC(=O)O (stereo not shown) [U-46619] | -8.54
NCCc1ccc(O)c(O)c1 [Dopamine, dopamine] | -12.3

Now for a further molecule.
So for NCCc1c[nH]c2ccc(O)cc12 [Serotonin, serotonin] , the logged ΔH (kcal/mol) ± SE turned out to be -13.7
